target: HLA-B*53:01; experiment: IEDB peptide-MHC binding, purified MHC/competitive/radioactivity; filed as Kd, often an IC50 or EC50 that approximates it; bounds were set here for any values at or beyond the usual limits of such assays; conditions: source organism: Mammarenavirus tacaribeense
value-type: Kd (nM)
Report as a plain number; the unit nM is understood.

Prompt: Fill in: Kd of VPYCNYTRFW is ___
Response: 15.9

----------
molecular target: HLA-A*01:01; assay: IEDB peptide-MHC binding, purified MHC/competitive/fluorescence; filed as Kd, often an IC50 or EC50 that approximates it; bounds were set here for any values at or beyond the usual limits of such assays; conditions: source organism: Staphylococcus aureus subsp. aureus N315
value-type: pKd
# pKd = -log10(concentration in molar units)

Prompt: Enter reported pKd observed with HLA-A*01:01 for MVIKWIHER
Response: 4.77
